Kindly supply the reported EC50 values for the records listed here.
# Subject of test: KRAS-G12D protein (Homo sapiens, UniProt P01116, G12D)
# Sequence (P01116 1-188 isoform P01116-2 G12D): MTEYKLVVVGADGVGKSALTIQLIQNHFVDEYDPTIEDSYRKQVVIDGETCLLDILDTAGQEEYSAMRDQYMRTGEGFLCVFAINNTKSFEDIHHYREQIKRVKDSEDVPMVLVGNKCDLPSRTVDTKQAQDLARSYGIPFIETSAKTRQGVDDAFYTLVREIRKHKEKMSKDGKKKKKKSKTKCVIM
# Assay text: SOS-mediated nucleotide exchange assay (BODIPY-GDP / Tb-streptavidin TR-FRET)
# Format: biochemical
*1 amine or outer side, *2 acyl side, *3 side chain or, on linkers, in order; H or OH if unused. Where a SMILES comes first, the peptide text is derived from it. Bridges are numbered along the chain shown (N, C = ends). [ ]: non-standard residue; d: D form. cBu(1-CO,cis-3-CH2NH) = O=C([C@H]1C[C@@H](CN[*:1])C1)[*:2]; NMeNva(5-imidazol-1-yl) = CN[C@@H](CCCn1ccnc1)C(=O)O; X18 = CNC(=N)N(C)c1ccc(C[C@H](N[*:1])C(=O)[*:2])cc1; X59 = O=C([C@H](Cc1ccc(CN2CCCC2)cc1)N[*:1])[*:2]; Ala(pyrimidin-5-yl) = N[C@@H](Cc1cncnc1)C(=O)O; NMe3Pal(6-Me) = CN[C@@H](Cc1ccc(C)nc1)C(=O)O; X6 = O=C([C@H](Cc1cnn(C2COC2)c1)N[*:1])[*:2]; 1Nal = N[C@@H](Cc1cccc2ccccc12)C(=O)O; Phe(2-F) = N[C@@H](Cc1ccccc1F)C(=O)O; NMe3Pal = CN[C@@H](Cc1cccnc1)C(=O)O; X1 = O=C(C12CC(CN[*:1])(C1)C2)[*:2]; NMeOrn(Me) = CNCCC[C@H](NC)C(=O)O; Ala(cPr) = N[C@@H](CC1CC1)C(=O)O; NMeF = CN[C@@H](Cc1ccccc1)C(=O)O; PhLac = O=C(O)[C@@H](O)Cc1ccccc1; 4Pal = N[C@@H](Cc1ccncc1)C(=O)O; Ahp(2) = CCCCC[C@H](N)C(=O)O; Cba = N[C@@H](CC1CCC1)C(=O)O; hLeu = CC(C)CC[C@H](N)C(=O)O; αMeC = C[C@](N)(CS)C(=O)O; NMeA = CN[C@@H](C)C(=O)O; Nle = CCCC[C@H](N)C(=O)O
Dear colleague, please return just the value in nM, with no unit written.

Ask | Returns the measured EC50 for the input molecule. Input: CCCC[C@@H]1NC(=O)[C@H](Cc2ccncc2)NC(=O)[C@H](CCCNC(=N)N)NC(=O)[C@H](Cc2cccc3ccccc23)NC(=O)CSC[C@@](C)(C(N)=O)NC(=O)[C@H](Cc2cccnc2)N(C)C(=O)[C@H](CCCC)NC(=O)[C@H](Cc2ccc(O)cc2)NC1=O [compound 333] ({CH2CO}-[1Nal]R[4Pal][Nle]Y[Nle][NMe3Pal][αMeC]-NH2; thioether N-8)
Reply | 19.9

Ask | For CCCC[C@@H]1NC(=O)[C@H](Cc2ccc(CN3CCCC3)cc2)NC(=O)[C@H](CCCn2ccnc2)N(C)C(=O)[C@H](Cc2ccccc2)NC(=O)[C@H]2C[C@@H](CNC(=O)[C@H](Cc3cccnc3)N(C)C(=O)[C@H](CCCC)NC(=O)[C@H](Cc3ccccc3F)NC1=O)C2 [compound 266] (cyclo(F[NMeNva(5-imidazol-1-yl)][X59][Nle][Phe(2-F)][Nle][NMe3Pal][cBu(1-CO,cis-3-CH2NH)])) , what is its reported EC50?
Reply | 215

Ask | Which measured EC50 value corresponds to CCCCC[C@@H]1NC(=O)[C@H](Cc2ccc(OC)cc2)NC(=O)[C@H](CC2CCC2)NC(=O)[C@H](Cc2ccc(N(C)C(=N)NC)cc2)NC(=O)[C@H](CCCNC(=N)N)NC(=O)[C@H](Cc2ccccc2)NC(=O)CSC[C@@](C)(C(N)=O)NC(=O)[C@H](Cc2ccccc2)N(C)C1=O ?
Reply | 1.6

Ask | I am curious: what EC50 value has been reported for CC(C)CC[C@@H]1NC(=O)[C@H](Cc2ccccc2F)NC(=O)[C@H](CC2CC2)NC(=O)[C@H](Cc2cncnc2)NC(=O)[C@H](C)N(C)C(=O)[C@H](Cc2ccccc2)OC(=O)C23CC(CNC(=O)[C@H](Cc4ccccc4)N(C)C1=O)(C2)C3 [compound 260] (cyclo([Ala(cPr)][Phe(2-F)][hLeu][NMeF][X1][PhLac][NMeA][Ala(pyrimidin-5-yl)])) ?
Reply | 1.95

Ask | Give its EC50 value. Item: CC(C)CC[C@@H]1NC(=O)[C@H](Cc2cnn(C3COC3)c2)NC(=O)[C@H](CC2CC2)NC(=O)[C@H](Cc2cncnc2)NC(=O)[C@H](C)N(C)C(=O)[C@H](Cc2ccccc2)OC(=O)C23CC(CNC(=O)[C@H](Cc4ccccc4)N(C)C1=O)(C2)C3 [compound 300] (cyclo([Ala(cPr)][X6][hLeu][NMeF][X1][PhLac][NMeA][Ala(pyrimidin-5-yl)]))
Reply | 254

Ask | Reported EC50, molecule CCCCC[C@@H]1NC(=O)[C@H](Cc2ccc(OC)cc2)NC(=O)[C@H](CC2CCC2)NC(=O)[C@H](Cc2ccc(N(C)C(=N)NC)cc2)NC(=O)[C@H](CCCNC)N(C)C(=O)[C@H](Cc2ccccc2)NC(=O)CSC[C@@](C)(C(N)=O)NC(=O)[C@H](Cc2ccc(C)nc2)N(C)C1=O [compound 395] ({CH2CO}-F[NMeOrn(Me)][X18][Cba]Y(Me)[Ahp(2)][NMe3Pal(6-Me)][αMeC]-NH2; thioether N-8) : ____
Reply | 16
